Values were extracted from paper PMC7826789.

Tested on: DCAMKL2
Construct: gene DCLK2
Details: Compound Concentration (nM):1000;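 further: KINOMEscan scanMAX binding as percent activity remaining versus control; lower means stronger binding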
RESULT_TYPE: Percent Control (%)
One number for each entry, in %.

                                   molecule  system_name      result_type  reading
0  Cl.O=C(O[C@H]1CN[C@H](C#Cc2cc3ncnc(Nc4ccc5c(cnn5Cc5ccccc5)c4)c3s2)C1)N1CCOCC1 [GSK200398A]      DCAMKL2  Percent Control      100
1  CCS(=O)(=O)c1ccc(OC)c(Nc2ncc(-c3cccc(OC)c3)o2)c1 [GW580509X]      DCAMKL2  Percent Control      100
2  CCS(=O)(=O)c1ccc(OC)c(Nc2ncc(-c3cccc(F)c3)o2)c1 [GW621970X]      DCAMKL2  Percent Control       98

For each of the items listed, what is its Percent Control?
1. COC(=O)Nc1nc2ccc(Oc3ccc(NC(=O)Nc4cc(C(F)(F)F)ccc4F)cc3)cc2s1.Cl [GW693917A]
2. COc1cc(/C=N/Nc2ncnc3[nH]ncc23)ccc1O [GW578748X]
3. Nc1ncnc2occ(-c3ccc(NC(=O)Nc4cc(C(F)(F)F)ccc4F)cc3)c12 [GW770249X]
4. COc1cccc(-n2ncc3c(N/N=C/c4ccncc4)ncnc32)c1 [GW784752X]
5. NS(=O)(=O)c1ccc(Nc2ncc(-c3ccccc3)o2)cc1 [GW572399X]

Result block:
86
100
76
100
100

* * *

Tested on: YES
Construct: gene YES1
Conditions: Compound Concentration (nM):1000
RESULT_TYPE: Percent Control (%)
Answers are plain numbers, in %.

In [3]: df
Out[3]:
                                   compound      result_type  reading
0  Cc1cc(O)cc(C)c1/C=C/c1cncc(C(N)=O)c1 [GW435821X]  Percent Control      100
1  COc1ccc2[nH]c3c4[nH]c5ccc(OC)cc5c4c4c(c3c2c1)C(=O)NC4=O [GW296115X]  Percent Control       73
2  NS(=O)(=O)c1ccc(N/N=C2\C(=O)Nc3ccc(C(=O)NCc4ccncc4)cc32)cc1 [GW300657X]  Percent Control      100
3  COc1cc2ncn(-c3cc(O[C@H](C)c4ccccc4Cl)c(C(N)=O)s3)c2cc1OC [GSK237701A]  Percent Control       87

Shift focus to the following entry.
Lab note: measured Percent Control of `O=C(Nc1n[nH]c2nc(-c3ccc(O)cc3)c(Br)cc12)C1CC1` was 100

* * *

System: MKK7
Construct: gene MAP2K7
Details: Compound Concentration (nM):1000
RESULT_TYPE: Percent Control (%)
Give bare numbers, in %.

Reference set (4 entries):
>>> print(df.to_string())
                                   molecule      result_type  units_label  reading
0  CC(C)COC(=O)c1ccc2c(c1)/C(=C/Nc1ccc(S(N)(=O)=O)cc1)C(=O)N2 [GW416981X]  Percent Control            %      100
1  COc1cc2ncn(-c3cc(O[C@H](C)c4ccccc4Cl)c(C(N)=O)s3)c2cc1OC [GSK237701A]  Percent Control            %       97
2  Nc1ncnc2occ(-c3ccc(NC(=O)Nc4cc(C(F)(F)F)ccc4F)cc3)c12 [GW770249X]  Percent Control            %      100
3  COc1cc(C=NNc2ncnc3c2cnn3-c2ccccc2)ccc1O [GW513184X]  Percent Control            %      100

Shift focus to the following entry.
Lab note: measured Percent Control of COc1ccc(COc2ccc(Cc3cnc(N)nc3N)cc2OC)cc1 [GW632580X] was 80
